Target: T1, human αvβ6 on 293F:huβ6 cells (human, UniProt P06756 31-1048; P18564 22-788)
T1 chain 1: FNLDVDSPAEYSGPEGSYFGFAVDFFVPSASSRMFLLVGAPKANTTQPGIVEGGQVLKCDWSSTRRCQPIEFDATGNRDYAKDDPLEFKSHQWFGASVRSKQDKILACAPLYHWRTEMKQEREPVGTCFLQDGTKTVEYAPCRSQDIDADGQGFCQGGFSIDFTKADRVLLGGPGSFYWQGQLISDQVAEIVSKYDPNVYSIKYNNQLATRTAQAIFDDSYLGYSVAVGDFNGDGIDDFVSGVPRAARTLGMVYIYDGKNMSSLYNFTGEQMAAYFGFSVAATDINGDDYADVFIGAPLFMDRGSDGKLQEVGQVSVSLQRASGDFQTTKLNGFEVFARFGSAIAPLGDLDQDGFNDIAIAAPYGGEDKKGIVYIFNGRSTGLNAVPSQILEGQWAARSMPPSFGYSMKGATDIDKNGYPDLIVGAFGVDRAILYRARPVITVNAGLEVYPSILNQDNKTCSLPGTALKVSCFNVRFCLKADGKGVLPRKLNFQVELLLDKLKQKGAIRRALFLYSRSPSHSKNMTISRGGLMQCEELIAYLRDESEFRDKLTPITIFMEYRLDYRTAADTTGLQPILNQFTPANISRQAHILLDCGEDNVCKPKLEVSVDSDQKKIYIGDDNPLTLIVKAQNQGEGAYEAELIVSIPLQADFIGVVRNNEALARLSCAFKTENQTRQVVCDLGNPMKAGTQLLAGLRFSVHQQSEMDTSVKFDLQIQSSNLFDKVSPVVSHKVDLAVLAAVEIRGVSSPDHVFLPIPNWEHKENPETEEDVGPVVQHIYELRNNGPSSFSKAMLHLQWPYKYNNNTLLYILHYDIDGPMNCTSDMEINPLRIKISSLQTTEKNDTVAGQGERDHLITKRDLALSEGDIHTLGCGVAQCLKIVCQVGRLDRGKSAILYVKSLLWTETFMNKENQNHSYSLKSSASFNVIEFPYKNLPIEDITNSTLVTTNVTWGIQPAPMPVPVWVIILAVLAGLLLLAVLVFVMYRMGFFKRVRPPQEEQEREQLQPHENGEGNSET
T1 chain 2: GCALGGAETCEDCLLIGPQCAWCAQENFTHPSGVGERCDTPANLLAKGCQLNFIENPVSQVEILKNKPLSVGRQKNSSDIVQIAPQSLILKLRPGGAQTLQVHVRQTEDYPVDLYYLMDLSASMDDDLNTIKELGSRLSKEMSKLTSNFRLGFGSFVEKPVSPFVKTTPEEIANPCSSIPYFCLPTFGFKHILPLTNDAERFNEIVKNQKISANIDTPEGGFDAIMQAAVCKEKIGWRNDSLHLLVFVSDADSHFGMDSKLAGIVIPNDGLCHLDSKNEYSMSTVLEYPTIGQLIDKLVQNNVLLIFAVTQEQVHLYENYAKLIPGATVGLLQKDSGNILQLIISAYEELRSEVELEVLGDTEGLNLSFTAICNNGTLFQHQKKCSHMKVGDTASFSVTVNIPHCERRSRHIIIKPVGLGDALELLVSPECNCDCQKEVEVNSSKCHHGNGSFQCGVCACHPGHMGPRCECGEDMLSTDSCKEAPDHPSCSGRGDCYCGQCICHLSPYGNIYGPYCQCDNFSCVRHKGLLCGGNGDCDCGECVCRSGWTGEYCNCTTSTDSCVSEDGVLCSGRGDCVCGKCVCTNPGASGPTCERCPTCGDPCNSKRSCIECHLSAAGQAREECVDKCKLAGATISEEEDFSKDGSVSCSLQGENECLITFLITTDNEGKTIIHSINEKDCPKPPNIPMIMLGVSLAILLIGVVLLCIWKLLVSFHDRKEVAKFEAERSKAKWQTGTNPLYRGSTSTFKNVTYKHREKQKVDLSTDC
Assay: competition binding on 293F cells; 2nM m2A2-AF647 competitor
Recorded measurements of EC50, one per entry
Reply numerically in nM, unit not repeated.

Here's what some known entries look like.
binder	EC50, nM
h2A2 HCLE (antibody, V domains shown) VH: QFQLVQSGAEVKKPGASVKVSCKASGYSFTDYNVNWVRQAPGQGLEWIGVINPKYGTTRYNQKFKGRATLTVDKSTSTAYMELSSLRSEDTAVYYCTRGLNAWDYWGQGTLVTVSS VL: DIQMTQSPSSLSASVGDRVTITCQASENIYGALNWYQQKPGKAPKLLIYGATNLADGVPSRFSGSGSGRDYTFTISSLQPEDIATYYCQNVLTTPYTFGQGTKLEIKR	3
h2A2 HALC (antibody, V domains shown) VH: QFQLVQSGAEVKKPGASVKVSCKASGYSFTDYNVNWVRQAPGQGLEWMGVINPKYGTTRYNQKFKGRVTMTRDTSTSTVYMELSSLRSEDTAVYYCTRGLNAWDYWGQGTLVTVSS VL: DIQMTQSPSSLSASVGDRVTITCGASENIYGALNWYQQKPGKAPKLLIYGATNLATGVPSRFSGSGSGRDYTFTISSLQPEDIATYYCQNVLTTPYTFGQGTKLEIKR	9

Next item in the queue.
Ask | Can you look up the measured EC50 of h2A2 HCLC (antibody, V domains shown) VH: QFQLVQSGAEVKKPGASVKVSCKASGYSFTDYNVNWVRQAPGQGLEWIGVINPKYGTTRYNQKFKGRATLTVDKSTSTAYMELSSLRSEDTAVYYCTRGLNAWDYWGQGTLVTVSS VL: DIQMTQSPSSLSASVGDRVTITCGASENIYGALNWYQQKPGKAPKLLIYGATNLATGVPSRFSGSGSGRDYTFTISSLQPEDIATYYCQNVLTTPYTFGQGTKLEIKR for me?
Reply | 3
